Molecular target: human GPR 119 receptor (Homo sapiens, UniProt Q8TDV5)
Construct: expressed in transfected cells
Sequence (Q8TDV5 1-335): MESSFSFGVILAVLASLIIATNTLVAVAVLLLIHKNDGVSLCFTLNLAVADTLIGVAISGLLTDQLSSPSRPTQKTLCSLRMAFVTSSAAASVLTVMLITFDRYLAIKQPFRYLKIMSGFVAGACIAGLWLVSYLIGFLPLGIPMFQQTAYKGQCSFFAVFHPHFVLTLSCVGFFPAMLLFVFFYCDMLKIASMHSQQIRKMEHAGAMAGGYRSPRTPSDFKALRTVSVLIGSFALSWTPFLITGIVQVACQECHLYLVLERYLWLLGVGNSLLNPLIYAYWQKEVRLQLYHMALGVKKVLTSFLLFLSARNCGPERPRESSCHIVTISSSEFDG
Assay: cAMP assay in stable cell line expressing recombinant human GPR 119 receptor
Type: cell-based
Conditions: 100 nM compound; DMSO = 1
Description: A stable cell line expressing recombinant human GPR 119 receptor was established and used to investigate the efficacy of the compounds of the invention based on the intracellular levels of cyclic AMP (cAMP) using commercially available cAMP kits.
metric: Fold increase in cyclic AMP with respective to DMSO (fold)

Answered examples (2):
| compound | study.target | output.unit | experimental.result |
| --- | --- | --- | --- |
| Cc1c(Oc2ccc(/C=C3\SC(=O)NC3=O)cc2)ncnc1OC1CCN(Cc2ccccc2)CC1 | human GPR 119 receptor (Homo sapiens, UniProt Q8TDV5) | fold | 0.67 |
| CC(=O)CN1C(=O)S/C(=C\c2ccc(Oc3cc(OC4CCN(C(=O)OC(C)(C)C)CC4)ncn3)cc2)C1=O | human GPR 119 receptor (Homo sapiens, UniProt Q8TDV5) | fold | 1.89 |

1 = CCOC(=O)N1CCC(Oc2cc(Oc3cccc(/C=C4\SC(=O)NC4=O)c3)ncn2)CC1
2 = CCOC(=O)CN1C(=O)S/C(=C\c2ccc(Oc3ncnc(OC4CCN(C(=O)OC(C)(C)C)CC4)c3C)cc2)C1=O
*Q* Fold increase in cyclic AMP with respective to DMSO comparison. Which is larger, 1 or 2 ? Write down the label of the entry you select.
*A* 2

1 = CCOC(=O)N1CCC(Oc2ncnc(Oc3cccc(/C=C4\SC(=O)NC4=O)c3)c2C)CC1
2 = Cc1c(Oc2ccc(/C=C3\SC(=O)NC3=O)cc2)ncnc1OC1CCN(C(=O)OCc2ccccc2)CC1
3 = Cc1c(OCC2CCCN2C(=O)OC(C)(C)C)ncnc1Oc1cccc(/C=C2\SC(=O)NC2=O)c1 (stereo not shown)
*Q* Rank ascending by Fold increase in cyclic AMP with respective to DMSO. Rank them, then answer with their labels in that order.
*A* 2, 3, 1

---

Biological target: human GPR 119 receptor (Homo sapiens)
Construct: expressed in transfected cells
Sequence (Q8TDV5 1-335): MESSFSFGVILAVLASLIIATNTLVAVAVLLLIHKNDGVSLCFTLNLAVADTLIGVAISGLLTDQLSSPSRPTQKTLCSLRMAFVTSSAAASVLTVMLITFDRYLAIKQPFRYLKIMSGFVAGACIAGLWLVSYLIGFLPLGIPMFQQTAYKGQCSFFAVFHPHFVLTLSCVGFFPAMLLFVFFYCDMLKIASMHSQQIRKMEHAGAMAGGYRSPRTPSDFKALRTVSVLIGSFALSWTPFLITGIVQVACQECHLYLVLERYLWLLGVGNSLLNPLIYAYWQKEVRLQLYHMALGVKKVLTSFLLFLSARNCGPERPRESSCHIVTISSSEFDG
Assay: cAMP assay in stable cell line expressing recombinant human GPR 119 receptor
Assay type: cell-based
Details: 10 nM compound; DMSO = 1
metric: Fold increase in cyclic AMP with respective to DMSO (fold)

Answered examples (2):
| molecule | output.unit | experimental.result |
| --- | --- | --- |
| Cc1c(OCC2CCCN2C(=O)OC(C)(C)C)ncnc1Oc1ccc(/C=C2\SC(=O)NC2=O)cc1 (stereo not shown) | fold | 1.50 |
| COc1cc(/C=C2\SC(=O)NC2=O)ccc1Oc1cc(OC2CCN(C(=O)OC(C)(C)C)CC2)ncn1 | fold | 0.87 |

P = Cc1c(Oc2cccc(/C=C3\SC(=O)NC3=O)c2)ncnc1OC1CCN(C(=O)OCC(C)C)CC1
Q = CCc1cnc(N2CCC(Oc3ncnc(Oc4ccc(/C=C5\SC(=O)N(S(C)(=O)=O)C5=O)cc4)c3C)CC2)nc1
*Q* Fold increase in cyclic AMP with respective to DMSO comparison. Which is larger, P or Q ? Write down the label of the entry you select.
*A* P

A = CCOC(=O)CN1C(=O)S/C(=C\c2cccc(Oc3ncnc(OC4CCN(C(=O)OC(C)(C)C)CC4)c3C)c2)C1=O
B = CCOC(=O)CN1C(=O)S/C(=C\c2ccc(Oc3ncnc(OC4CCN(C(=O)OC(C)(C)C)CC4)c3C)cc2)C1=O
*Q* Could you determine which record has the numerically smaller Fold increase in cyclic AMP with respective to DMSO? Candidates: A and B Write down the label of the entry you select.
*A* A
(A: 1.05 fold, B: 5.90 fold)

---

Biological target: human GPR 119 receptor (Homo sapiens, UniProt Q8TDV5)
Construct: expressed in transfected cells
Assay: cAMP assay in stable cell line expressing recombinant human GPR 119 receptor
Assay type: cell-based
Details: 100 nM compound; DMSO = 1
metric: Fold increase in cyclic AMP with respective to DMSO (fold)

Answered examples (2):
| compound | experimental.result |
| --- | --- |
| Cc1c(Oc2cccc(/C=C3\SC(=O)NC3=O)c2)ncnc1OC1CCN(C(=O)OCC(C)C)CC1 [Example 22] | 1.82 |
| CCc1cnc(N2CCC(Oc3cc(Oc4cccc(/C=C5\SC(=O)NC5=O)c4)ncn3)CC2)nc1 [Example 55] | 2.86 |

P = O=C1NC(=O)/C(=C/c2ccc(Oc3cc(OC4CCN(Cc5ccccc5)CC4)ncn3)cc2)S1 [Example 37]
Q = CCc1cnc(N2CCC(Oc3ncnc(Oc4ccc(/C=C5\SC(=O)N(S(C)(=O)=O)C5=O)cc4)c3C)CC2)nc1 [Example 3]
*Q* Fold increase in cyclic AMP with respective to DMSO comparison. Which is larger, P or Q ? Write down the label of the entry you select.
*A* P

---

Biological target: human GPR 119 receptor (Homo sapiens, UniProt Q8TDV5)
Construct: expressed in transfected cells
Sequence (Q8TDV5 1-335): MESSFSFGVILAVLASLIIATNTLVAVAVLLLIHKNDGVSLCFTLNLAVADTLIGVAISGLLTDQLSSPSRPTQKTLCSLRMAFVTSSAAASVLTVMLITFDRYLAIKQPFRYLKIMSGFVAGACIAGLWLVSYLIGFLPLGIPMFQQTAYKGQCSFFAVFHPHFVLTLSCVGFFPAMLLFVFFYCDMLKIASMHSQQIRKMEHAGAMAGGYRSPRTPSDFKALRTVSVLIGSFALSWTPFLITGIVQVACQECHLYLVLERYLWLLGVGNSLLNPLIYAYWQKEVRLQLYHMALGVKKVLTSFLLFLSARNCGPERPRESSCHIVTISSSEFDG
Experiment: cAMP assay in stable cell line expressing recombinant human GPR 119 receptor
Type: cell-based
Details: 1 uM compound; DMSO = 1
metric: Fold increase in cyclic AMP with respective to DMSO (fold)

| structure.smiles | experimental.result |
| --- | --- |
| COC(=O)N1CCC(Oc2cc(Oc3ccc(/C=C4\SC(=O)NC4=O)cc3)ncn2)CC1 | 0.96 |
| Cc1c(Oc2ccc(/C=C3\SC(=O)NC3=O)cc2)ncnc1OC1CCN(Cc2ccccc2)CC1 | 1.64 |
| COC(=O)N1CCC(Oc2ncnc(Oc3cccc(/C=C4\SC(=O)N(C(C)C)C4=O)c3)c2C)CC1 | 1.45 |

A = CCOC(=O)CN1C(=O)S/C(=C\c2ccc(Oc3ncnc(OC4CCN(C(=O)OC(C)(C)C)CC4)c3C)cc2)C1=O
B = CCOC(=O)N1CCC(Oc2cc(Oc3ccc(/C=C4\SC(=O)NC4=O)cc3)ncn2)CC1
C = Cc1c(Oc2cccc(/C=C3\SC(=O)NC3=O)c2)ncnc1OC1CCN(C(=O)OC(C)(C)C)CC1
D = O=C1NC(=O)/C(=C/c2ccc(Oc3cc(OC4CCN(c5ncccn5)CC4)ncn3)cc2)S1
*Q* Place the items in sequence of falling Fold increase in cyclic AMP with respective to DMSO. Rank them, then answer with their labels in that order.
*A* A, C, B, D

---

Molecular target: human GPR 119 receptor (Homo sapiens)
Construct: expressed in transfected cells
Assay: cAMP assay in stable cell line expressing recombinant human GPR 119 receptor
Type: cell-based
Settings: 100 nM compound; DMSO = 1
Excerpt: A stable cell line expressing recombinant human GPR 119 receptor was established and used to investigate the efficacy of the compounds of the invention based on the intracellular levels of cyclic AMP (cAMP) using commercially available cAMP kits.
metric: Fold increase in cyclic AMP with respective to DMSO (fold)

Answered examples (5):
| compound | output.unit | experimental.result |
| --- | --- | --- |
| O=C1NC(=O)/C(=C/c2ccc(Oc3cc(OC4CCN(C(=O)OCc5ccccc5)CC4)ncn3)cc2)S1 | fold | 3.59 |
| CCOC(=O)N1CCC(Oc2ncnc(Oc3ccc(/C=C4\SC(=O)NC4=O)cc3)c2C)CC1 | fold | 2.40 |
| O=C1NC(=O)/C(=C/c2cccc(Oc3cc(OC4CCN(C(=O)OCc5ccccc5)CC4)ncn3)c2)S1 | fold | 3.66 |
| CC(C)COC(=O)N1CCC(Oc2cc(Oc3cccc(/C=C4\SC(=O)NC4=O)c3)ncn2)CC1 [Example 54] | fold | 2.28 |
| O=C1NC(=O)/C(=C/c2cccc(Oc3cc(OC4CCN(Cc5ccccc5)CC4)ncn3)c2)S1 | fold | 1.38 |

a = COC(=O)N1CCC(Oc2cc(Oc3cccc(/C=C4\SC(=O)NC4=O)c3)ncn2)CC1
b = Cc1c(Oc2cccc(/C=C3\SC(=O)NC3=O)c2)ncnc1OC1CCN(c2ncccn2)CC1
*Q* Could you determine which record has the numerically smaller Fold increase in cyclic AMP with respective to DMSO? Candidates: a and b Write down the label of the entry you select.
*A* a
(a: 1.38 fold, b: 2.86 fold)
